These measurements were taken from ChEMBL document CHEMBL1157124.

tested on: KB; assay: Cytotoxicity against human KB cells assessed as growth inhibition at 0.1 ug/ml after 24 hrs by MTT assay; type: functional; conditions: read-out: GI
Measured inhibition of growth at 0.1 µg/mL, listed per entry for reference.
Number only, in %; omit the unit.

Below are worked cases with known answers.
| molecule | reading |
| --- | --- |
| O=C(CCCCC(S)CCS)Nc1ccc(OC(F)(F)F)cc1 (stereo not given) | 7.27 |
| O=C(CCCCC1CCSS1)Nc1ccc(OC(F)(F)F)cc1 (stereo not given) | 1.97 |
| O=C(CCCCC(S)CCS)NO (stereo not given) | 7.62 |
| O=C(CCCCC1CCSS1)Nc1ccccc1 (stereo not given) | 10.9 |

Summary for this molecule, O=C(CCCCC(CCSC(=O)c1ccccc1)SC(=O)c1ccccc1)Nc1cccc(Cl)c1 (stereo not given) : inhibition of growth at 0.1 µg/mL is 10.7

====

tested on: Bel-7402; assay: Cytotoxicity against human Bel7402 cells assessed as growth inhibition at 10 ug/ml after 24 hrs by MTT assay; format: functional; conditions: Bel-7402, 24 h, read-out: GI
Measured inhibition of growth at 10 µg/mL, listed per entry for reference.
Number only, in %; omit the unit.

Below are worked cases with known answers.
| compound | unit.of.measure | inhibition of growth at 10 µg/mL |
| --- | --- | --- |
| O=C(CCCCC(S)CCS)Nc1cccc(Cl)c1 (centres undefined) | % | 3.22 |
| O=C(CCCCC1CCSS1)Nc1ccc([N+](=O)[O-])cc1 (centres undefined) | % | 4.83 |

Summary for this compound, CC(=O)SCCC(CCCCC(=O)Nc1ccccc1Cl)SC(C)=O (centres undefined) : inhibition of growth at 10 µg/mL is 3.09

Summary for this compound, O=C(CCCCC1CCSS1)Nc1ccc(Br)cn1 (centres undefined) : inhibition of growth at 10 µg/mL is 24.5

====

Measured inhibition of growth at 1 µg/mL, listed per entry for reference.
experiment: Cytotoxicity against human HO8910 cells assessed as growth inhibition at 1 ug/ml after 24 hrs by MTT assay; format: functional; details: HO-8910, 24 h, read-out: GI
Number only, in %; omit the unit.

Below are worked cases with known answers.
| compound | inhibition of growth at 1 µg/mL, % |
| --- | --- |
| COc1ccc(NC(=O)CCCCC2CCSS2)cc1 (stereo not drawn) | 3.54 |
| O=C(CCCCC(S)CCS)Nc1cccc(C(F)(F)F)c1 (stereo not drawn) | 13.7 |
| CC(=O)SCCC(CCCCC(=O)Nc1ccccc1)SC(C)=O (stereo not drawn) | 10.6 |
| O=C(CCCCC1CCSS1)Nc1ccc([N+](=O)[O-])cc1 (stereo not drawn) | 0.33 |
| CC(=O)SCCC(CCCCC(=O)Nc1ccc(Cl)cc1)SC(C)=O (stereo not drawn) | 0.35 |
| O=C(O)CCCC[C@@H](S)CCS [DIHYDROLIPOIC ACID] | 3.93 |
| O=C(CCCCC1CCSS1)Nc1ccccc1 (stereo not drawn) | 10.9 |
| O=C(CCCCC(CCSC(=O)c1ccccc1)SC(=O)c1ccccc1)Nc1ccccc1Cl (stereo not drawn) | 2.35 |
| O=C(CCCCC1CCSS1)Nc1ccc(Br)cn1 (stereo not drawn) | 4.27 |
| O=C(CCCCC(CCSC(=O)c1ccccc1)SC(=O)c1ccccc1)Nc1ccccc1 (stereo not drawn) | 3.79 |

Summary for this compound, O=C(O)CCCCC1CCSS1 (stereo not drawn) : inhibition of growth at 1 µg/mL is 1.05

Summary for this compound, Cc1cccc(NC(=O)CCCCC2CCSS2)c1 (stereo not drawn) : inhibition of growth at 1 µg/mL is 4.54

Summary for this compound, O=C(CCCCC(CCSC(=O)c1ccccc1)SC(=O)c1ccccc1)Nc1cccc(Cl)c1 (stereo not drawn) : inhibition of growth at 1 µg/mL is 3.38

Summary for this compound, O=C(CCCCC1CCSS1)Nc1ccccc1Cl (stereo not drawn) : inhibition of growth at 1 µg/mL is 7.74

Summary for this compound, O=C(CCCCC1CCSS1)Nc1ccc(F)cc1 (stereo not drawn) : inhibition of growth at 1 µg/mL is 5.82

Summary for this compound, O=C(CCCCC(S)CCS)Nc1ccccc1Cl (stereo not drawn) : inhibition of growth at 1 µg/mL is 7.72

Summary for this compound, O=C(CCCCC(S)CCS)Nc1ccc(OC(F)(F)F)cc1 (stereo not drawn) : inhibition of growth at 1 µg/mL is 0.56

Summary for this compound, O=C(CCCCC(S)CCS)Nc1ccc(F)cc1 (stereo not drawn) : inhibition of growth at 1 µg/mL is 12.2

====

tested on: NCI-H460; assay: Cytotoxicity against human NCI-H460 cells assessed as growth inhibition at 0.1 ug/ml after 24 hrs by MTT assay; assay type: functional; conditions: NCI-H460, 24 h, read-out: GI
Classes are defined on inhibition of growth at 0.1 µg/mL with ranges group A (below 6%), group B (6% to below 10%), group C (10% or more)

| molecule | system.tested | discrete.label |
| --- | --- | --- |
| O=C(CCCCC1CCSS1)Nc1ccc([N+](=O)[O-])c(C(F)(F)F)c1 (centres undefined) | NCI-H460 | group C |

Classify this molecule: O=C(CCCCC(S)CCS)Nc1ccccn1 (centres undefined)
group A

Classify this molecule: O=C(CCCCC1CCSS1)Nc1ccc(Cl)cc1 (centres undefined)
group C

Classify this molecule: O=C(CCCCC1CCSS1)NO (centres undefined)
group A

Classify this molecule: O=C(CCCCC1CCSS1)Nc1ccc(Br)cn1 (centres undefined)
group B

Classify this molecule: O=C(CCCCC(S)CCS)NO (centres undefined)
group A

Classify this molecule: CC(=O)SCCC(CCCCC(=O)Nc1ccccc1)SC(C)=O (centres undefined)
group C

Classify this molecule: O=C(CCCCC(S)CCS)Nc1ccccc1 (centres undefined)
group A

Classify this molecule: O=C(CCCCC1CCSS1)Nc1ccccn1 (centres undefined)
group A

Classify this molecule: COc1ccc(NC(=O)CCCCC(S)CCS)cc1 (centres undefined)
group A

Classify this molecule: O=C(CCCCC(S)CCS)Nc1ccccc1Cl (centres undefined)
group B

Classify this molecule: O=C(CCCCC1CCSS1)Nc1ccc([N+](=O)[O-])cc1 (centres undefined)
group C

====

test system: Bel-7402; experiment: Cytotoxicity against human Bel7402 cells assessed as growth inhibition at 10 ug/ml after 24 hrs by MTT assay; format: functional; settings: Bel-7402, 24 h, read-out: GI
readout.label: inhibition of growth at 10 µg/mL

| compound | readout.label | reading |
| --- | --- | --- |
| O=C(CCCCC1CCSS1)Nc1ccc(OC(F)(F)F)cc1 (centres undefined) | inhibition of growth at 10 µg/mL | 1.24% |
| O=C(CCCCC(S)CCS)Nc1ccccc1 (centres undefined) | inhibition of growth at 10 µg/mL | 3.72% |
| COc1ccc(NC(=O)CCCCC2CCSS2)cc1 (centres undefined) | inhibition of growth at 10 µg/mL | 6.32% |
| O=C(CCCCC1CCSS1)Nc1ccc(Cl)cc1 (centres undefined) | inhibition of growth at 10 µg/mL | 7.01% |
| O=C(CCCCC(S)CCS)Nc1ccc(Cl)cc1 (centres undefined) | inhibition of growth at 10 µg/mL | 1.16% |

Summary for this compound, O=C(CCCCC(S)CCS)Nc1ccc(OC(F)(F)F)cc1 (centres undefined) : inhibition of growth at 10 µg/mL is 14.2%

Summary for this compound, O=C(CCCCC(S)CCS)Nc1ccc(F)cc1 (centres undefined) : inhibition of growth at 10 µg/mL is 6.14%

Summary for this compound, CC(=O)SCCC(CCCCC(=O)Nc1ccc(Cl)cc1)SC(C)=O (centres undefined) : inhibition of growth at 10 µg/mL is 5.78%

Summary for this compound, Cc1cccc(NC(=O)CCCCC(S)CCS)c1 (centres undefined) : inhibition of growth at 10 µg/mL is 14.1%

Summary for this compound, CC(=O)SCCC(CCCCC(=O)O)SC(C)=O (centres undefined) : inhibition of growth at 10 µg/mL is 9.22%

Summary for this compound, O=C(CCCCC(S)CCS)Nc1ccc(Cl)cn1 (centres undefined) : inhibition of growth at 10 µg/mL is 17.8%

Summary for this compound, O=C(CCCCC(CCSC(=O)c1ccccc1)SC(=O)c1ccccc1)Nc1ccccc1Cl (centres undefined) : inhibition of growth at 10 µg/mL is 6.63%

====

system: Bel-7402; experiment: Cytotoxicity against human Bel7402 cells assessed as growth inhibition at 0.1 ug/ml after 24 hrs by MTT assay; format: functional; conditions: Bel-7402, 24 h, read-out: GI
readout.label: inhibition of growth at 0.1 µg/mL

Reported Bel-7402 inhibition of growth at 0.1 µg/mL for item O=C(CCCCC1CCSS1)Nc1ccccc1Cl (stereo not drawn) was 6.83%

Reported Bel-7402 inhibition of growth at 0.1 µg/mL for item O=C(CCCCC(S)CCS)Nc1ccc(Cl)cc1 (stereo not drawn) was 1.06%
